These entries and their values trace back to the supplement of paper PMC10681739.

Target: ETS1 (UniProt P14921)
Sequence: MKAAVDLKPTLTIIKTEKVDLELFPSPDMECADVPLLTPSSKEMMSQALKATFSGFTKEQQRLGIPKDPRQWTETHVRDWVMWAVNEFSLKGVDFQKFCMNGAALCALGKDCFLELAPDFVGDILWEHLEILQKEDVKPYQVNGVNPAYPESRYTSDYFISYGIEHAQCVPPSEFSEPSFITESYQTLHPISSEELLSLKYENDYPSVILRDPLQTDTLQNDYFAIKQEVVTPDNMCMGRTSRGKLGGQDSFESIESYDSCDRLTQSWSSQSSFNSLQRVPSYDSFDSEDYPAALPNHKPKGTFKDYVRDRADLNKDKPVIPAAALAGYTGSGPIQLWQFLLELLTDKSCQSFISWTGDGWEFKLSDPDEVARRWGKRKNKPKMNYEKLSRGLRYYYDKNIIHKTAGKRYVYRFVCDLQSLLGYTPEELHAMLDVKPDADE
Test: ETS1 binding intensity (PBM fluorescence), ETS1 alone (arbitrary fluorescence units); higher = stronger binding
Settings: ETS1 concentration 1 nM; RUNX1 concentration 0 nM
Over roughly 4,100 sequences, “arbitrary fluorescence units” has its median near 780; the highest 2% begin near 22,000. The list comes from a sample in which the highest values are over-represented; it also holds close analogues and randomly drawn sequences.
Everything with ETS1 binding intensity lower than 900 is F; everything else, including exactly 900, is T.

Here's what some known entries look like.
INSERT INTO measurements (biosequence, class_label) VALUES
  ('CTTCCTTCCCTTCCTTCTGCTCCCTCCCAGAGCCGC', 'F'),
  ('GGGGGAGTTTTCGGAAGCGCTAACAGCGTTGGGGCC', 'F'),
  ('GCGGAGGGAAGCGGAAATACTTGCAGTGGGGGCGAC', 'T'),
  ('GAGAAACGTCAGGCATGGCCGGGCCACCAGGAAAAC', 'F'),
  ('CGACGTCACTTCCGCTGGTTCAAGCACCGTGAGACT', 'T'),
  ('CTCGGCCAACGCGTGCTCCACTCGGAAGTGGTGCCG', 'F'),
  ('GCCACACTTCCGGCGGGGCTGCGACTGCAGAGGGGC', 'T'),
  ('TGACAGACCCGGAAATAAGAGGAGACAACACACTTG', 'T');

Q: Evaluate `TTGGTGACCTCTTCCTGTCCGCTGGGGTGTTGTTAC` : ETS1 binding intensity at minimum 900?
Result: T

Q: One more sequence: `TGGGGCTCTTCCTGCTTATGTGAGCACAGCACCTTG`
Result: T

Q: One more sequence: `CTGTCTGCTTCCCGTGGCCAGCCCTGATCGCGGCCC`
Result: T

Q: One more sequence: `TTCAGGCGGCAAAGAACAGACCTGCAGGAGGAAATA`
Result: F

Q: One more sequence: `GTGCAACTGCTGTAAAAATAGGAAGTGGGGGAGGAG`
Result: F

Q: One more sequence: `AGCACCAGTGTTGTCTCTGCTTCCGGTCCTTATGGT`
Result: T

Q: One more sequence: `GCCACTTCCGGTCACTCCCCTCAGCGGCCTCGCGCT`
Result: T

Q: One more sequence: `TTCTATCCTGCCTTGCATGTCTTTAATCACACTGAG`
Result: T

Q: One more sequence: `CTTCTACTTCCTGCCCCGCCCCCAGCTGTGCTCACA`
Result: T

Q: One more sequence: `GCCCACTTCCTGCCGTAAGAGAAATCCACTAACACA`
Result: T

Q: One more sequence: `TCCCAGTTTATGGGAAGGGTTGAGGGAAGTGAGGGG`
Result: F

Q: One more sequence: `CCACCGTGCTGTAAACTGCACTTCCTCACTTAGCAC`
Result: F

Q: One more sequence: `CTCCGCGCAGCCCCAGAGACCCTTGGGAAGTGTGGT`
Result: F

Q: One more sequence: `CACTCCCCTCCCGAGGTCACACTTCCGGCGGCCACC`
Result: T

Q: One more sequence: `CGCCCCGGCAGCCGCCCACGTCCGGGGGCCAGGCCT`
Result: F

Q: One more sequence: `AGAAAACTACATTCAATTCTCTTTACACAGGATGTT`
Result: F

Q: One more sequence: `GACGCAGCCCCAGAGCGATTCGCGTCCCGGAAGCGG`
Result: F

---

Molecular target: ETS1 (UniProt P14921)
Sequence: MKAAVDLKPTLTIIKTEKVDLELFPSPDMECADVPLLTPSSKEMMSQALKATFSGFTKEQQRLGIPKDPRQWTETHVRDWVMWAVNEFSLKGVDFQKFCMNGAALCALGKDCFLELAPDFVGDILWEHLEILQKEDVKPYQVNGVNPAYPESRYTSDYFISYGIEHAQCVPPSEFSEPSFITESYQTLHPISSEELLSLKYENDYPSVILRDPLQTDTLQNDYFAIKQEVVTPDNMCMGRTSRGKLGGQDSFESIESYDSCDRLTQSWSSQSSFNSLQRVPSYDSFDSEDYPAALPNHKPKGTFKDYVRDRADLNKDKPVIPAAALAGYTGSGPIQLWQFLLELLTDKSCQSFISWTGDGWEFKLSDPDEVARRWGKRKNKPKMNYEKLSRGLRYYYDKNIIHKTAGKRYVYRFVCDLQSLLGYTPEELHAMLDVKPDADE
Assay: ETS1 binding intensity (PBM fluorescence), ETS1 alone (arbitrary fluorescence units); higher = stronger binding
Details: ETS1 concentration 1 nM; RUNX1 concentration 0 nM
Whole data set: some 4,100 sequences, median “arbitrary fluorescence units” near 780, cut for the highest 2% near 22,000. This is one part of a sample in which the highest values are shown more often than they occur.
In this section, each of the sequences is paired with its reported ETS1 binding intensity.
When you answer, write just the number.

Q: Fill in the blank: the reported ETS1 binding intensity of `CCCACTTCCTGTCCCTGCATGCTCTGGGGCAGGCAG` is ____.
Result: 31100

Q: One more sequence: `TGCTGCACCCCAGCCCCTTTCTCTTCCGGTTCTAGG`
Result: 1850

Q: One more sequence: `AACACTATTTCCTTTCTTGCTGCTCACATTTTAACA`
Result: 4990

Q: One more sequence: `GCAGCTTCCGCGGCCCCCGCCCGGCCTGCAGCGCCA`
Result: 2350

Q: One more sequence: `GGTCACTTCGGCCCAGAGGCCCGCTCTTCCGCTGAG`
Result: 564

Q: One more sequence: `CAGCCAGCGCACCTCCTCCTCAGCTTCCTCTGGTGC`
Result: 620

---

In this section, each of the sequences is paired with its reported ETS1 binding intensity.
Molecular target: ETS1 (UniProt P14921)
Sequence: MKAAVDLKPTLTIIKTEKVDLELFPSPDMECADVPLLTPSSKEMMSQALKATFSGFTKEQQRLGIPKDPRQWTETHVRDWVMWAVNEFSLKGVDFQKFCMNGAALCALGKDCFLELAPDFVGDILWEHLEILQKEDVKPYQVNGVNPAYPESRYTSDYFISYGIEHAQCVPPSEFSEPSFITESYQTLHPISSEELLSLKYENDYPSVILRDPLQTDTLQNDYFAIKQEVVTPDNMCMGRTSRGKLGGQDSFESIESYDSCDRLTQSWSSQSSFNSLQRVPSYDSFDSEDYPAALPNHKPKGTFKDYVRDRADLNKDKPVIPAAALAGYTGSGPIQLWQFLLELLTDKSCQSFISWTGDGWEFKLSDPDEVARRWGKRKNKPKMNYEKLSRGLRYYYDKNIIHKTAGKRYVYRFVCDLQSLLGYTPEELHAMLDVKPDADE
Experiment: ETS1 binding intensity (PBM fluorescence), ETS1 alone (arbitrary fluorescence units); higher = stronger binding
Details: ETS1 concentration 1 nM; RUNX1 concentration 0 nM
Over roughly 4,100 sequences, “arbitrary fluorescence units” has its median near 780; the highest 2% begin near 22,000. The sample holds the highest values, similar sequences and a random draw of the others, so the mix is not that of the screen.
When you answer, write just the number.

A selection of reference data follows.
INSERT INTO results (biosequence, tgt, observed_property, number) VALUES
  ('CCTGCCTTCCGTCTTCCAGGCAGAACGACAGAGAGG', 'ETS1 (UniProt P14921)', 'ETS1 binding intensity', 1710),
  ('GTAGGGCCGGACGGCAGGCTCCGGGATAGCGCCACG', 'ETS1 (UniProt P14921)', 'ETS1 binding intensity', 416),
  ('GTCCCCTCGGTGTCACAGCAATATCCGTTCTTTGAT', 'ETS1 (UniProt P14921)', 'ETS1 binding intensity', 1190),
  ('GACTGCGCCGGACGCGCCAGCCCTGCGCGATGACGT', 'ETS1 (UniProt P14921)', 'ETS1 binding intensity', 678),
  ('CGTTTCCTGTCTGGGACTGCGCCCACGCGATCACGT', 'ETS1 (UniProt P14921)', 'ETS1 binding intensity', 38800);

// next item, ETS1 binding intensity requested
Q: Fill in the blank: the reported ETS1 binding intensity of `ACAAAAAAATCACACACCCAACGGAAACCATAGAGA` is ____.
Result: 669
